molecular target: Dual specificity protein kinase CLK4 (Homo sapiens); assay: qHTS Assay for Inhibitors of CDC-like Kinase 4 (ADP-FP Assay) (AID 1795); details: Transcreener ADP fluorescence polarization; series mostly up to 50 µM; further: nearly all actives have a fitted effect of over 60% in size
Results filed as inconclusive are left out. Active and inactive are the calls of the source. The call rests on the fitted dose curve; in most records, active means well fitted inhibition curve with a large enough effect; inconclusive means small, poorly fitted or top-dose-only effect; inactive means flat fitted curve, though single readings scatter.
Please state which outcome applies, choosing from Yes (active), No (inactive)

stdin: Dear colleague, could you share the recorded outcome for c1cncc(CNc2cc(-c3ccoc3)ncn2)c1 when you have a moment?
stdout: No

stdin: I would be grateful if you could indicate the recorded call for Cc1cnc(CNc2ncnc3ccc(-c4ccc5c(c4)OCO5)cc23)cn1 .
stdout: Yes

stdin: Test call, this compound: COc1ccccc1CNc1ccnc(-c2ccc(N(C)C)cc2)n1
stdout: No

stdin: Short answer needed: outcome of this test for COc1cccc(-c2nccc(NCc3cccs3)n2)c1 ?
stdout: Yes

stdin: Answer briefly: the call reported for COc1cccc(Nc2ncc3nc(-c4cccs4)c(=O)n(-c4ccccc4)c3n2)c1 in this assay.
stdout: No

stdin: For CN(C)c1ccc(-c2cncnc2Nc2ccc(F)cc2)cc1 , which call appears in the assay record?
stdout: No

stdin: State the result this test recorded for N#CCCn1c(=O)c(-c2ccc(Cl)cc2)nc2cnc(N3CCNCC3)nc21 .
stdout: No

stdin: Which result was noted for this compound in the test: COc1cccc(Cn2c(=O)c(CCc3ccccc3)nc3cnc(N4CCOCC4)nc32)c1
stdout: No

stdin: Would you mind telling me which call this test gave Cc1nc2cnc(Nc3ccccc3)nc2n(CCc2ccccc2)c1=O ?
stdout: No

stdin: State the result this test recorded for Cc1cnc(CNc2cc(-c3ccccc3CN(C)C)ncn2)cn1 .
stdout: No

stdin: Each compound tested received a call. Report the one for CS(=O)(=O)Nc1cccc(-c2cncnc2NCc2ccccc2)c1 .
stdout: No

stdin: Which outcome did this test record for the compound c1ccc(Nc2ncncc2-c2ccoc2)cc1 ?
stdout: Yes

stdin: Write down the call the test reported for this compound. Item: CCNc1ncc2nc(-c3cc(F)cc(F)c3)c(=O)n(CCOC)c2n1
stdout: No

stdin: # lookup: test call for COCCn1c(=O)cnc2cnc(Oc3cccc(Cl)c3)nc21
stdout: No

stdin: For COc1cccc(Nc2ncc3nc(-c4ccccc4)c(=O)n(C)c3n2)c1 , which call appears in the assay record?
stdout: No

stdin: For this compound, state the assay outcome: CCNc1ncc2nc(-c3cc(F)cc(F)c3)c(=O)n(CCC#N)c2n1
stdout: No

stdin: For COc1cccc(Cn2c(=O)cnc3cnc(OCc4ccccc4)nc32)c1 , which call appears in the assay record?
stdout: No

stdin: Called result for CCNc1ncc2nc(C)c(=O)n(CCOC)c2n1
stdout: No

stdin: Could you please tell me the result logged for CN(C)c1ccc(-c2cncnc2Nc2ccccc2)cc1 in this assay?
stdout: No

stdin: Just curious, what result did CN(C)Cc1ccccc1-c1cc(NCc2ccccc2)ncn1 get here?
stdout: No

stdin: What call does the record list for COc1ccc(Oc2ncc3ncc(=O)n(C4CC4)c3n2)cc1 ?
stdout: No

stdin: Please indicate how the test categorized Cn1cc(-c2nc3cnc(N4CCNCC4)nc3n(-c3ccccc3)c2=O)c2ccccc21 .
stdout: No

stdin: Which outcome did this test record for the compound COCCn1c(=O)c(CCc2ccccc2)nc2cnc(Oc3ccc(OC)cc3)nc21 ?
stdout: No

stdin: # lookup: test call for COc1ccccc1-c1cc(Nc2ccn[nH]2)ncn1
stdout: No
